Experiment: Anti-coagulation activity evaluated as activated partial thromboplastin time (APTT) of the sulfated compound determined for 25 ug/mL in pooled normal plasma
Assay type: functional

{"molecule": "CCC(C)C(=O)N1CC[C@H](OS(=O)(=O)O)C1 (some centres undefined)", "APTT, s": 32}
{"molecule": "CCC(C)C(=O)N1C[C@@H](OS(=O)(=O)O)C[C@@H]1C(=O)O (some centres undefined)", "APTT, s": 100}
{"molecule": "CCC(C)C(=O)N[C@H](COS(=O)(=O)[O-])C(=O)[O-].[Na+].[Na+] (some centres undefined)", "APTT, s": 35}
{"molecule": "CCC(C)C(=O)N[C@H](Cc1ccc(OS(=O)(=O)[O-])cc1)C(=O)[O-].[Na+].[Na+] (some centres undefined)", "APTT, s": 45}
